Molecular target: CLK1 (Homo sapiens, UniProt P49759)
Sequence (P49759 141-484): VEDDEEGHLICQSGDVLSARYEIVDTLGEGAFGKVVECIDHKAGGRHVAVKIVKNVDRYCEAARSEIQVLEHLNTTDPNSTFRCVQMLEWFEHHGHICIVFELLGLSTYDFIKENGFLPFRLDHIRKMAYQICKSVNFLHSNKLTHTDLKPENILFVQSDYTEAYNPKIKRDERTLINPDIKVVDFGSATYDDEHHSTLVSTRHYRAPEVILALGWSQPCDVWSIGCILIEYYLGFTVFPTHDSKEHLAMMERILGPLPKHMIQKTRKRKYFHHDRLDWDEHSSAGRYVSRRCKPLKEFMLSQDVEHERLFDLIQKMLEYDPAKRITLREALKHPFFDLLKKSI
Assay: Kinase-GLO luminescent kinase assay
Type: biochemical
Design: made in house; host or cells: E. coli
Details: 1 μM compound; means of at least 3 measurements
Residual activity (% of control) CLK1 values, listed per item

These recorded examples may help you get a feel for the data.
[
  {
    "COMPOUND": "COc1ccc2c3ccnc(C)c3n(C(C)C#N)c2c1 (stereo not shown)",
    "OBSERVED_MEASUREMENT": "10 % of control"
  },
  {
    "COMPOUND": "COc1ccc2c(c1)[nH]c1c(C)nccc12",
    "OBSERVED_MEASUREMENT": "23 % of control"
  },
  {
    "COMPOUND": "COc1ccc2c(c1)[nH]c1c(Cl)nccc12",
    "OBSERVED_MEASUREMENT": "17 % of control"
  }
]

So, Cc1nccc2c3ccc(Cl)c(Cl)c3n(CC#N)c12 ? Its Residual activity (% of control) CLK1 was 33 % of control

So, COc1ccc2c(c1)[nH]c1c(/C=C/c3ccccc3)nccc12 ? Its Residual activity (% of control) CLK1 was 58 % of control

So, C#CCn1c2cc(OC)ccc2c2ccnc(Cl)c21 ? Its Residual activity (% of control) CLK1 was 46 % of control

So, COc1ccc2c3ccnc(C)c3n(CC#N)c2c1 ? Its Residual activity (% of control) CLK1 was 11 % of control

So, COc1ccc2c3ccnc(C)c3n(CCC#N)c2c1 ? Its Residual activity (% of control) CLK1 was 44 % of control

So, Nc1ncnc2c1c(I)cn2[C@@H]1O[C@H](CO)[C@@H](O)[C@H]1O [IoT, 5-iodotubercidin, reference compound] ? Its Residual activity (% of control) CLK1 was 4 % of control

So, C#CCn1c2c(C)nccc2c2ccc(Cl)c(Cl)c21 ? Its Residual activity (% of control) CLK1 was 34 % of control

* * *

Target: MAO-A (Homo sapiens, UniProt P21397)
Sequence (P21397 whole entry): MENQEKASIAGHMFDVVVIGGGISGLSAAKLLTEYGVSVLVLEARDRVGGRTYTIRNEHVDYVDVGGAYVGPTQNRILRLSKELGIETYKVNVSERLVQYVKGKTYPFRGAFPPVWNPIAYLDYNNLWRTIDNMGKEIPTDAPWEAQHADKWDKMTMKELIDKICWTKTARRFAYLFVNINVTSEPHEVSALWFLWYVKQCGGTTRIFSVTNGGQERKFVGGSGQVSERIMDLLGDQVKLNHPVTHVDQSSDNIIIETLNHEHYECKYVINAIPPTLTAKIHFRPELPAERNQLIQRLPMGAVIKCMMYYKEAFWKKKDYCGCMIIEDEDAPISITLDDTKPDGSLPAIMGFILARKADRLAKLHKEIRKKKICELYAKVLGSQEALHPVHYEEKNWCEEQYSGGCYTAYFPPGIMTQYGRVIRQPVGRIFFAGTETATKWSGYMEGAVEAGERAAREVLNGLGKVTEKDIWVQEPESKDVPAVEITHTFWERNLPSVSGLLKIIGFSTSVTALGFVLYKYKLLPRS
Test: MAO-GLO assay
Type: biochemical
Details: read-out: Inhibition of MAO-A IC50
MEASUREMENT_NAME: IC50 (µM)
State just the number; it will be interpreted in µM.

So, COc1ccc2c3ccnc(C)c3n(CC#N)c2c1 ? Its IC50 was 3.2

* * *

Experiment: Cell viability XTT assay
Assay type: cell-based
Settings: rat, PC12, 1 μM, read-out: Viability of treated cells relative to untreated control
MEASUREMENT_NAME: viability at 3 days, 1 µM (%)
State just the number; it will be interpreted in %.

So, CN[C@@H]1C[C@H]2O[C@@](C)([C@@H]1OC)n1c3ccccc3c3c4c(c5c6ccccc6n2c5c31)C(=O)NC4 [Staurosporine, reference compound] ? Its viability at 3 days, 1 µM was 18

* * *

Test: Cell viability XTT assay
Format: cell-based
Conditions: human, SH-SY5Y, 1 μM, read-out: Viability of treated cells relative to untreated control
MEASUREMENT_NAME: viability at 3 days, 1 µM

So, CN[C@@H]1C[C@H]2O[C@@](C)([C@@H]1OC)n1c3ccccc3c3c4c(c5c6ccccc6n2c5c31)C(=O)NC4 [Staurosporine, reference compound] ? Its viability at 3 days, 1 µM was 6%
